molecular target: Ectonucleotide pyrophosphatase/phosphodiesterase family member 1 (Homo sapiens); test: Competitive inhibition of human NPP1 using p-Nph-5'-TMP as substrate by Lineweaver-Burk plot analysis
Sequence (P22413 whole entry): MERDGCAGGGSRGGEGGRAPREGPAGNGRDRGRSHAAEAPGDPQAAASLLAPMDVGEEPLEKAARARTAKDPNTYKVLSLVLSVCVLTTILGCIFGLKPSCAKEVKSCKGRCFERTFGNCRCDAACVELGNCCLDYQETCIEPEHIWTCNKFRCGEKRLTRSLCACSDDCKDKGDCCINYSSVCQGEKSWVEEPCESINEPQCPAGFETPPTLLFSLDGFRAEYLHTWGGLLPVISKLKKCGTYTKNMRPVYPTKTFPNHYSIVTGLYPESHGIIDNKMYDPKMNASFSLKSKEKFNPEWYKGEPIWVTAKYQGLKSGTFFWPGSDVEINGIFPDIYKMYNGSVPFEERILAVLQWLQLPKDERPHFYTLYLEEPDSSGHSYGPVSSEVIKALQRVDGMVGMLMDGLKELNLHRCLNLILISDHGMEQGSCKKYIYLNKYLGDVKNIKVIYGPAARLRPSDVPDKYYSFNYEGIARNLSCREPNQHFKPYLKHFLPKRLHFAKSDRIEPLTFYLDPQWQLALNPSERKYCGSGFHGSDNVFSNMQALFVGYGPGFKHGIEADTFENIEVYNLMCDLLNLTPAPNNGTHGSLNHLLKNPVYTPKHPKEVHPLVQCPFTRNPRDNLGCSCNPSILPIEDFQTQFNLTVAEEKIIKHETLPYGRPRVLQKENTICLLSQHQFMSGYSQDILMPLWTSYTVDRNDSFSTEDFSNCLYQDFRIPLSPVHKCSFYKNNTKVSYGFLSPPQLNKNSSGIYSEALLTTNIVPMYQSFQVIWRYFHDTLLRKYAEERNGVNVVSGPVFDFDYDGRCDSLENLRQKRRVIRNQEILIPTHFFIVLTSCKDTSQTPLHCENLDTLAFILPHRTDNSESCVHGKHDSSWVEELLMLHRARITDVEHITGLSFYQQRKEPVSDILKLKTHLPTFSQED
PROPERTY_LABEL: Ki (nM)

# annotated cases, reported Ki shown
                                        smi  test_result
0  COc1ccc(NC(=O)CSc2nc3c(C)ccnc3[nH]2)cc1OC          127
1  COc1ccc(NC(=O)CSc2nc3c(OC)nc(N)nc3[nH]2)cc1OC         8040
2    COc1ccc(NC(=O)CSc2nc3nccnc3[nH]2)cc1OC          131

A. COc1ccc(NC(=O)CSc2nc3cc(Br)cnc3[nH]2)cc1OC
B. COc1ccc(NC(=O)CSc2nc3c(=O)[nH]cnc3[nH]2)cc1OC
Which shows the larger Ki value: A or B ? Indicate your choice by writing its label.
A

----------
molecular target: Ectonucleotide pyrophosphatase/phosphodiesterase family member 1 (Homo sapiens) (UniProt P22413); assay: Inhibition of human NPP1 using p-Nph-5'-TMP as substrate at 10 uM
PROPERTY_LABEL: inhibition (%)

Solved cases below.
>>> print(df.to_string())
                                        smi  endpoint_unit  test_result
0  COc1ccc(NC(=O)CSc2nc3ccc(N(C)C)nc3[nH]2)cc1OC              %           58
1   COc1ccc(NC(=O)CCSc2nc3cccnc3[nH]2)cc1OC              %           13
2  COc1ccc(NC(=O)CSc2nc3ccc(OCC(F)(F)F)nc3[nH]2)cc1OC              %           61

A. Cc1cccc(C)c1NC(=O)CSc1nc2cccnc2[nH]1
B. COc1ccc(NS(=O)(=O)CSc2nc3ncccc3[nH]2)cc1OC
Lower inhibition: A or B ? Indicate your choice by writing its label.
A

A. O=C(CSc1nc2cccnc2[nH]1)Nc1ccccc1F
B. COc1ccc(NC(=O)CSc2nc3cccnc3[nH]2)c(OC)c1
C. COc1cccc(NC(=O)CSc2nc3cccnc3[nH]2)c1
D. Cc1ccc(NC(=O)CSc2nc3cccnc3[nH]2)c(Cl)c1
E. N#Cc1cccc(NC(=O)CSc2nc3cccnc3[nH]2)c1
Order the entries by their reported inhibition, beginning at the minimum. Give the labels in the order specified.
D, B, A, C, E

----------
target: Ectonucleotide pyrophosphatase/phosphodiesterase family member 1 (Homo sapiens) (UniProt P22413); assay: Inhibition of human NPP1 using p-Nph-5'-TMP as substrate at 10 uM
PROPERTY_LABEL: inhibition (%)

These recorded examples may help you get a feel for the data.
                                   compound  endpoint_unit  test_result
0       O=C(CSc1nc2cccnc2[nH]1)Nc1ccc(F)cc1              %           30
1  COc1ccc(NC(=O)CSc2nc3ccc(N4CCN(C)CC4)nc3[nH]2)cc1OC              %           35
2  COc1ccc(NC(=O)CSc2nc3ccc(SC)nc3[nH]2)cc1OC              %           59
3  CCn1c(=O)[nH]c(=O)c2nc(SCC(=O)Nc3ccc(OC)c(OC)c3)[nH]c21              %           43
4   COc1ccc(CNC(=O)CSc2nc3cccnc3[nH]2)cc1OC              %            0
5   CN(C)c1ccc(NC(=O)CSc2nc3cccnc3[nH]2)cc1              %           23

a. COc1ccc(NC(=O)CSc2ncc[nH]2)cc1OC
b. COc1ccc(NC(=O)CSc2nc3ccc(N4CCCCC4)nc3[nH]2)cc1OC
c. COc1ccc(NC(=O)C(C)Sc2nc3cccnc3[nH]2)cc1OC (configuration not stated)
d. COc1ccc(OC)c(NC(=O)CSc2nc3cccnc3[nH]2)c1
Could you please order the items by inhibition, going from the lowest number to the highest? Your answer should be the labels, listed in the requested order.
c, d, b, a

Recorded values, source ChEMBL document CHEMBL3351503.
